meta.source: the supplement of paper PMC8728848

# target_desc: Gal(a1-3)[Gal(a1-4)]Gal(b1-4)GlcNAc
# protocol_notes: glycan array binding signal (z-score within array); higher = stronger binding
# test_conditions: glycan notation: IUPAC condensed, linker removed
Only a selection was taken, and the strongest signals are over-represented in it overall.
glycan array binding signal (z-score) by entry:
readout_kind: glycan array binding signal (z-score)

# binder, readout_kind, reading
measured = [
    ("Tim-4 (Mus musculus), Q6U7R4 (protein) MSKGLLLLWLVTELWWLYLTPAASEDTIIGFLGQPVTLPCHYLSWSQSRNSMCWGKGSCPNSKCNAELLRTDGTRIISRKSTKYTLLGKVQFGEVSLTISNTNRGDSGVYCCRIEVPGWFNDVKKNVRLELRRATTTKKPTTTTRPTTTPYVTTTTPELLPTTVMTTSVLPTTTPPQTLATTAFSTAVTTCPSTTPGSFSQETTKGSAFTTESETLPASNHSQRSMMTISTDIAVLRPTGSNPGILPSTSQLTTQKTTLTTSESLQKTTKSHQINSRQTILIIACCVGFVLMVLLFLAFLLRGKVTGANCLQRHKRPDNTEDSDSVLNDMSHGRDDEDGIFTL", "glycan array binding signal (z-score)", -0.083),
    ("Mannose Binding Protein (Lactobacillus plantarum) (protein) AERSEAALTHVDKDNFLKYFSLNGSATYDAKTGIVTITPNQNNQVGNFSLTSKIDMNKSFTLTGQVNLGSNPNGADGIGFAFHSGNTTDVGNAGGNLGIGGLQDAIGFKLDTWFNSYQAPSSDKNGSEISSTNSNGFGWNGDSANAPYGTFVKTSNQEISTANGSKVQRWWAQDTGESQALSKADIDGNFHDFVVNYDGATRTLTVSYTQASGKVLTWKTTVASSYQAMAMVVSASTGAAKNLQQFKLTSFDFQEAATVNVKYVDTTGHQLAQG", "glycan array binding signal (z-score)", -0.551),
    ("GSL-I-B4 (Griffonia simplicifolia) (protein) NFWSDVEDSIIFQGDANTTAGTLQLCKTNQYGTPLQWSAGRALYSDPVQLWDNKTESVASFYTEFTFFLKITGNGPADGLAFFLAPPDSDVKDAGEYLGLFNKSTATQPSKNQVVAVEFDTWTNPNFPEPSYRHIGINVNSIVSVATKRWEDSDIFSGKIATARISYDGSAEILTVVLSYPDGSDYILSHSVDMRQNLPESVRVGISASTGNNQFLTVYILSWRFSSNLQSTSVKAAMEPEITRTVV", "glycan array binding signal (z-score)", 1.71),
    ("RegIIIgamma (Mus musculus), O09049 (protein) MLPRITITIMSWMLLSCLMLLSQVQGEVAKKDAPSSRSSCPKGSRAYGSYCYALFSVSKNWYDADMACQKRPSGHLVSVLSGAEASFLSSMIKSSGNSGQYVWIGLHDPTLGYEPNRGGWEWSNADVMNYINWETNPSSSSGNHCGTLSRASGFLKWRENYCNLELPYVCKFKA", "glycan array binding signal (z-score)", 0.491),
    ("MAL-II (Maackia amurensis), P93248 (protein) ATSNSKPTQVLLATFLTFFFLLLNNVNSSDELSFTINNFVPNEADLLFQGEASVSSTGVLQLTRVENGQPQQYSVGRALYAAPVRIWDNTTGSVASFSTSFTFVVKAPNPTITSDGLAFFLAPPDSQIPSGRVSKYLGLFNNSNSDSSNQIVAVEFDTYFGHSYDPWDPNYRHIGIDVNGIESIKTVQWDWINGGVAFATITYLAPNKTLIASLVYPSNQTSFIVAASVDLKEILPEWVRVGFSAATGYPTQVETHDVLSWSFTSTLEANSDAATENNVHIARYTA", "glycan array binding signal (z-score)", -0.252),
]
